These data points were gathered from patent US10233186B2.

Target: human ALK2 R206H (Homo sapiens, UniProt Q04771, R206H)
Construct: expressed in transfected cells; host or cells: HEK293 (ATCC CRL1573), lentivirus transduction, blasticidin selection
Sequence (Q04771 21-509 R206H): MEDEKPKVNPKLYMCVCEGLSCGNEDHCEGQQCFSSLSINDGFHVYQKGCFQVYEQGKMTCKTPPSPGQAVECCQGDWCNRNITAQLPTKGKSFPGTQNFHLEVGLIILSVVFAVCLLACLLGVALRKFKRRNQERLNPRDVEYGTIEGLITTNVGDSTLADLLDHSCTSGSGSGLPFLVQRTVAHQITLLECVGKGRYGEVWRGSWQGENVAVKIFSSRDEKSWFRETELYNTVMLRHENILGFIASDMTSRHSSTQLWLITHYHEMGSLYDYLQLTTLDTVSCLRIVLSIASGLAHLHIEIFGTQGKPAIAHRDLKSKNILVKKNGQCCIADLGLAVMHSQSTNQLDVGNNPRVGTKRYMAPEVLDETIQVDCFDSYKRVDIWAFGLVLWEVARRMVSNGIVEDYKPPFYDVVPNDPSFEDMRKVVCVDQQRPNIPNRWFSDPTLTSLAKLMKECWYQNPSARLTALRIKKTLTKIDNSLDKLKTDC
Assay: Cell-based ALK2-R206H cell activity assay (Smad1-Ser463/Ser465 phosphorylation by AlphaLISA in HEK293-ALK2-R206H cells)
Details: read-out: Cell Line (Cell Assay IC50)
Protocol: A HEK293 (ATCC, Cat^# CRL1573) based stable cell line expressing human ALK2 R206H cDNA (synthesized by GeneScript, Piscataway, N.J.) and a FLAG tag at the C-terminus was generated by lentivirus transduction and subsequent blasticidin (Life Technologies, Cat^#-A1113902) selection at 10 μg/ml for >2 wks. This cell line was named HEK293-ALK2-R206H. Test compounds were first diluted to 4 mM or 0.4 mM and then serially diluted 3-fold into 10 different concentrations using DMSO. […]
pIC50: −log10 of the molar value.
PROPERTY_LABEL: pIC50

- COMPOUND: "O=C([C@H]1CC[C@H](O)CC1)N1CCN(c2ccnn3cc(-c4ccc(C5CNCCO5)cc4)cc23)CC1 (stereo partly shown)"
  EXPERIMENTAL_VALUE: "6.30 to 7.00"

Below is a list of compounds. For each, state its recorded pIC50.
1. CCNC(=O)N1CCN(c2ccnn3cc(-c4ccc(N5CCNCC5)cc4)cc23)CC1
2. CCN1CCN(c2ccc(-c3cc4c(N5CCN(C(=O)[C@H]6C[C@H]6C#N)CC5)ccnn4c3)cc2)CC1

Result:
1. > 7.00
2. 6.30 to 7.00

I would be grateful if you could provide pIC50 for each of the following entries.
1. CCOC1(c2ccc(-c3cc4c(N5CCN(C(=O)OC6COC6)CC5)ccnn4c3)cc2)CCN(C(C)C)CC1
2. CC1OCC1OC(=O)N1CCN(c2ccnn3cc(-c4ccc([C@@H]5CCCN(C(C)C)C5)cc4)cc23)CC1 (stereo partly shown)
3. CCOC(=O)N1CCN(c2ccnn3cc(-c4ccc([C@@]5(C)CN(C(C)C)CCN5C)cc4)cc23)CC1
4. O=C(C1CC1)N1CCN(c2ccnn3cc(-c4ccc(N5CC6(CCNC6)C5)cc4)cc23)CC1

Result:
1. > 7.00
2. 6.30 to 7.00
3. > 7.00
4. 6.30 to 7.00
